Entries annotated with measured TGI
System: T-47D breast
protocol_notes: NCI tumour cell line growth inhibition, 48 h
Expressed in µM, but write only the number.

These recorded examples may help you get a feel for the data.
{"molecule": "COC(=O)c1oc2c(C(=O)/C=C/c3ccc(OC)cc3)c(OCCN(C)C)ccc2c1C", "test_target": "T-47D breast", "TGI, µM": 16.8}
{"molecule": "O=C1c2ccccc2-c2c1c1ccccc1c(=O)n2CCCNCCn1c2c(c3ccccc3c1=O)C(=O)c1ccccc1-2", "test_target": "T-47D breast", "TGI, µM": 34.6}
{"molecule": "CC(=O)N1N=C(c2ccc(Nc3nc(Nc4ccc(F)cc4)nc(Nc4ccc(F)cc4)n3)cc2)CC1c1ccc(N(C)C)cc1 (centres undefined)", "test_target": "T-47D breast", "TGI, µM": 37.4}
{"molecule": "Cc1c(N=C/C=C/c2ccccc2)c(=O)n(-c2ccccc2)n1C", "test_target": "T-47D breast", "TGI, µM": 62.4}

Let me know recorded TGI for c1ccc(CNCCN(CCNCc2ccccn2)Cc2ccc3ccccc3c2)nc1 , thanks.
9.06
